Source listed as ChEMBL document CHEMBL4118195.

# assay comment: Drug degradation in human liver microsomes assessed as compound half life at 1 uM by UPLC-MS method
# Type: ADME, microsome
property measured: half-life at 1 µM (min)
Only the number, expressed in min, is required.

Qu. Reported half-life at 1 µM, compound c1cc(C2CCC3(CC2)OOC2(OO3)C3CC4CC(C3)CC2C4)ccc1CN1CCOCC1 (stereo unspecified) : ____
Ans. 34

====

# assay comment: Half life in rat blood after 4 hrs by LC-MS method
# Assay type: ADME, tissue-based
property measured: half-life (h)
Numbers only; they are read as h.

Qu. Value lookup for half-life; key = CS(=O)(=O)O.c1cc(C2CCC3(CC2)OOC2(OO3)C3CC4CC(C3)CC2C4)ccc1CN1CCOCC1 (stereo unspecified)
Ans. 8
